- System: L 929 cells
- Assay summary: Cytotoxicity on cell cultures (Table 2)
- Condition description: culture time 24 hr; 0.5 × 10^-5 M; control 166
Provide the reported Cytotoxicity Index (number of cells) of each item.

Exercise: Determine its reported Cytotoxicity Index (number of cells): O=[N+]([O-])c1cc([N+](=O)[O-])c(I)s1
Key: 71 number of cells

Exercise: Determine its reported Cytotoxicity Index (number of cells): CS(=O)(=O)c1cc([N+](=O)[O-])c(I)s1
Key: 50 number of cells

Please supply Cytotoxicity Index (number of cells) for each of the following items, keeping them in order.
1. O=[N+]([O-])c1ccc(Oc2sccc2[N+](=O)[O-])cc1
2. O=[N+]([O-])c1csc([N+](=O)[O-])c1

Key:
1. 70 number of cells
2. 80 number of cells
